Task for the reader: assign each of the following compounds its reported cytotoxicity at 70.5 h.
- protocol-description: Human HepG2 cell viability assay in 384 well format
- Assay type: toxicity, cell-based
- Design: dose 125 nL, time 70.5 hour; concentration not given beside the values
- reported-conditions: HepG2 cells, read-out: Inhibition
Numeric answer only, unit % assumed.

[Q] Recorded cytotoxicity at 70.5 h for CNC(=O)COC1COC2(CCN(c3cnccn3)CC2)C1 (centres undefined) , please?
[A] 4.72

[Q] Now consider Cc1ccc2cc(C(=O)N3CCS(=O)(=O)CC3)[nH]c2c1 and answer again.
[A] -12.3

[Q] Now consider Cc1nnc2n1CCN(C(=O)c1cc(Cl)c(Br)[nH]1)C2 and answer again.
[A] -2.93

[Q] Now consider Cc1cc(N2CCCC3(CN(C)C(=O)O3)C2)c2cc3c(cc2n1)OCO3 (centres undefined) and answer again.
[A] 19.1

[Q] Now consider Cc1cnc(C(=O)NCC2Cc3ccccc3O2)cn1 (centres undefined) and answer again.
[A] 1.1

[Q] Now consider CC(C)N(C)Cc1noc2c1CN(C(=O)c1cnccn1)CC2 and answer again.
[A] -1.15

[Q] Now consider Cc1cc(N(C)C)nc(C2(C)CCCN2C(=O)c2ccn(C)n2)n1 (centres undefined) and answer again.
[A] -9.18

[Q] Now consider Cc1nc(C)c(C(=O)N2CCc3nc4sc(C)cc4c(=O)n3CC2)o1 and answer again.
[A] -4.92

[Q] Now consider CCOC(=O)C1CC2(CCCCC2)N2CCC(=O)N12 (centres undefined) and answer again.
[A] -4.11

[Q] Now consider Cc1ccccc1Cn1cnc2oc(C)c(C(=O)O)c2c1=O and answer again.
[A] -11.3

[Q] Now consider C(=C\c1ccccc1)/CNCC1CCc2nncn2C1 (centres undefined) and answer again.
[A] 5.32

[Q] Now consider CC(=O)N1CCN(Cn2nc(-c3ccc(F)cc3)oc2=O)CC1 and answer again.
[A] -8.85

[Q] Now consider CC(=O)c1ccccc1-c1nc(CC2CCN(C)CC2)no1 and answer again.
[A] 16.1

[Q] Now consider COCC(C)NCc1nc(-c2ccc(C)cc2)c(-c2ccccn2)[nH]1 (centres undefined) and answer again.
[A] -1.81

[Q] Now consider O=C(NCc1cc[nH]n1)N1CCCCC(N2CCCC2)C1 (centres undefined) and answer again.
[A] -0.0102

[Q] Now consider COC1CCCN(C(=O)NCCCF)C1 (centres undefined) and answer again.
[A] -2.7

[Q] Now consider CS(=O)(=O)NC1CCN(C(=O)c2coc(CN3CCOCC3)c2)CC1 and answer again.
[A] -2.89

[Q] Now consider COc1ccc(Cl)cc1NCC(=O)NCCc1ccccn1 and answer again.
[A] 5.95

[Q] Now consider Cc1cc(C)nc(C2CCCN2S(=O)(=O)N2CCOCC2)n1 (centres undefined) and answer again.
[A] -4.98

[Q] Now consider CC(=O)c1c(C)nn(CC(=O)Nc2ccc(F)cc2)c1C and answer again.
[A] 30

[Q] Now consider c1cncc(-c2nnn3c2COCC(CNCC2CCOCC2)C3)c1 (centres undefined) and answer again.
[A] 8.92

[Q] Now consider Cc1cn2c(n1)C(CNCC1=Cc3cc(Cl)ccc3OC1)CCC2 (centres undefined) and answer again.
[A] 3.13

[Q] Now consider CN(C)CCN1CCOCC2(CCCN(C(=O)c3cccn3C)C2)C1 (centres undefined) and answer again.
[A] 0.0252

[Q] Now consider COc1ccc(C)c2c1N(C(=O)c1cnc3onc(C)c3c1)CCC2 and answer again.
[A] 2.65
